System: T-47D breast
Experiment: NCI tumour cell line growth inhibition, 48 h
Let's look at some compounds and their measured TGI.

Below: 3 compounds and their reported TGI.
COC1=C(C)C(=O)c2c(c(COC(N)=O)c3n2CC2C3N2C)C1=O (centres undefined): 0.201 µM
CCCCCCCC/C=C/CCCCCCCC(=O)OC[C@H]1O[C@@H](n2ccc(N)nc2=O)C(F)(F)[C@@H]1O: > 100 µM
CCOC(=O)CNc1c(OCc2ccccc2)c(=O)c1=O: > 100 µM

Okay, next one:
IN: Param item = COC(CNC(=O)C(C)NC(=O)CCc1ccccc1)OC (centres undefined) ; retrieve measured TGI.
OUT: > 100 µM

====

Readings of TGI for the listed compounds
Tested on: MALME-3M melanoma
Test: NCI tumour cell line growth inhibition, 48 h

Previously resolved entries follow.
COc1cc(/C=C(\C#N)C(N)=O)cc(Br)c1O: > 100 µM
CC1CC[C@]2(C(=O)O)CCC3(C)C(=CC(=O)C4[C@@]5(C)CCC(=O)C(C)(C)C5CC[C@]43C)[C@@H]2[C@H]1C (stereo partly specified): 80.3 µM
O=C1OC(c2ccccc2)=N/C1=C\c1cccc2ccccc12: > 100 µM

IN: For "O=C(O)Cc1cccc2c(=O)c3ccccc3oc12" , what is its reported TGI?
OUT: > 100 µM

IN: Would you mind telling me what TGI value was observed for Cc1cccc(NC(=O)C(=O)C(C(=O)c2ccc3ccccc3c2)C2OC(=O)c3ccccc32)c1C (stereo unspecified) ?
OUT: 21.7 µM

IN: Could you share which TGI value was measured for O=P(Nc1ccc(Cl)cc1)(Oc1ccccc1)N(CCCl)CCCl (stereo unspecified) ?
OUT: > 100 µM

IN: TGI for Cc1ccc([N+](=O)[O-])cc1S(=O)(=O)Nc1ccc(C2=NNC(c3ccccc3)C2)cc1 (stereo unspecified) ?
OUT: 46 µM

IN: For "COC(=O)[C@@H](C)CNS(=O)(=O)N(c1cc(C(F)(F)F)cc(C(F)(F)F)c1)C1CCN(Cc2ccc(F)cc2)CC1" , what is its reported TGI?
OUT: 22.3 µM

IN: Using the record for "CC(C)[Si](OC1=C(C(=O)N(C)c2cccc(Cl)c2)CCCC1)(C(C)C)C(C)C" , report its TGI.
OUT: 24.9 µM

IN: Sample "CCN(CC)C(=O)Cn1c(C)cc2ccccc21" — what was its TGI?
OUT: > 100 µM

IN: # get_value(readout='TGI', item= "COc1ccc(/C=C/c2ccnc3ccccc23)c(OC)c1" )
OUT: > 10 µM

====

Each entry below lists one item and its recorded TGI value.
Tested on: SF-539 CNS
Test: NCI tumour cell line growth inhibition, 48 h

Study these solved cases before continuing.
CC1(C)NC2C(=O)c3c([nH]c4ccccc34)[C@]3(C)CCC1CC23 (stereo partly drawn): > 100 µM
CSc1ncnc2c1ncn2C1CC(Oc2ccc(C)cc2)C(COc2ccc(C)cc2)O1 (stereo not drawn): > 100 µM

In the following, a different molecule is considered.
IN: Any idea what TGI was measured for Cc1cn(C2CC(O)C(CO)O2)c(=O)n2nnnc12 (stereo not drawn) ?
OUT: > 100 µM

====

Test system: SF-268 CNS
Experiment: NCI tumour cell line growth inhibition, 48 h
Entries annotated with measured TGI

Example entries and their recorded answers appear below.
c1ccc2c(c1)ccn2CCc1c[nH]c2ccccc12: > 10 µM
Cc1cc(Cl)ccc1N=C1NC(=O)C(CC(=O)Nc2ccc([N+](=O)[O-])cc2[N+](=O)[O-])S1 (configuration not stated): > 100 µM
CCOC(=O)C1=C(C)N(NC(=O)Nc2ccccc2)C(=O)C1=P(c1ccccc1)(c1ccccc1)c1ccccc1: > 100 µM
C=CCCN1CCc2c([nH]c3ccccc23)C1C(=O)O (configuration not stated): > 100 µM
CN(C)C(=O)c1cc2cnc(Nc3ccc(-c4csc5c(=S)cc(N6CCOCC6)oc45)cc3)nc2n1C1CCCC1: > 50 µM
Cc1ccc(SCC(CF)OC(C)n2cnc3c(=O)[nH]c(N)nc32)cc1 (configuration not stated): > 100 µM

Next, consider the following compound.
IN: For the compound shown here, CCOc1cn(C2CC(O)C(CO)O2)c(=O)[nH]c1=O (configuration not stated) , give the reported TGI.
OUT: > 100 µM

Every entry's value here was drawn from PubChem BioAssay (NCI).
